IC50 for Proto-oncogene tyrosine-protein kinase receptor Ret (Homo sapiens) - collated from the literature.

The reported value for CCCOc1cc(-c2ccc(NC(=O)Nc3ccc(OC4(C)COC4)c(C(F)(F)F)c3)cc2)c[nH]c1=O in terms of IC50 is < 100 nM

The reported value for Cc1ccc(F)cc1C(=O)NC1(C)CC2CN(c3ccc(-c4cc(OCC(C)(C)O)cn5ncc(C#N)c45)cn3)CC2C1 (centres unmarked) in terms of IC50 is 3.6 nM

The reported value for CN1CCN(C(=O)c2cccc3[nH]c(-c4n[nH]c5ncc(-c6cncc7ccccc67)cc45)nc23)CC1 in terms of IC50 is > 100000 nM

The reported value for COCc1cccc2[nH]c(-c3n[nH]c4ncc(-c5cncc(CNCCN(C)C)c5)cc34)nc12 in terms of IC50 is > 100000 nM

The reported value for c1csc(-c2cnc3[nH]ccc3c2)c1 in terms of IC50 is ≤ 10000 nM

The reported value for CCOc1cc(-c2ncc(NC(=O)Nc3ccc(C(C)O)c(C(F)(F)F)c3)c(C)n2)c[nH]c1=O (centres unmarked) in terms of IC50 is < 100 nM

The reported value for Cc1cc(Nc2cc(C)[nH]n2)nc([C@]2(O)CC[C@@H](C(=O)N[C@@H](C)c3ccc(-n4cc(F)cn4)nc3)CC2)c1 in terms of IC50 is < 10 nM

The reported value for COc1cccc(C(=O)c2c[nH]c3ncc(-c4cccs4)cc23)c1F in terms of IC50 is ≤ 10000 nM

----------
pIC50 for Proto-oncogene tyrosine-protein kinase receptor Ret (Homo sapiens, UniProt P07949) - collated from the literature.
pIC50: −log10 of the molar value.

The reported value for COc1ccc(C(=O)c2c[nH]c3ncc(Br)cc23)c(Cl)c1 in terms of pIC50 is ≥ 5.00

The reported value for Cc1cc(Nc2cc(C)c(C#N)c(N3CC(F)(C(=O)NCc4ccc(-n5cccn5)nc4)C3)n2)n[nH]1 in terms of pIC50 is > 8.00

The reported value for COc1ccc(CN2CCC(n3ccc(-c4cc(-c5cnn(C)c5)cn5ncc(C#N)c45)cc3=O)CC2)cn1 in terms of pIC50 is 7.24

The reported value for CCOc1cc(-c2ccc(NC(=O)Nc3ccc(OC(C)(C)C)c(C(F)(F)F)c3)cc2)c[nH]c1=O in terms of pIC50 is > 7.00

The reported value for CO[C@]1(C(=O)N[C@@H](C)c2ccc(-n3cc(F)cn3)nc2)C[C@@](O)(c2cc(C)cc(Nc3cc(C)[nH]n3)n2)C1 in terms of pIC50 is > 7.00

The reported value for CCOc1cc(-c2ncc(NC(=O)Nc3ccc(C(C)(C)C(N)=O)c(C(F)(F)F)c3)c(C)n2)c[nH]c1=O in terms of pIC50 is > 7.00

The reported value for Cc1cc(Nc2cc(C)[nH]n2)nc(N2CCC(C)(C(=O)NCc3ccccc3)CC2)n1 in terms of pIC50 is 7.00 to 8.00

The reported value for Cc1cc(C(=O)c2c[nH]c3ncc(-c4cccc(N)c4)cc23)n(C)n1 in terms of pIC50 is ≥ 5.00

The reported value for CCOc1cc(-c2ncc(NC(=O)Nc3ccc(CN4CCC4)c(C(F)(F)F)c3)c(C)n2)c[nH]c1=O in terms of pIC50 is > 7.00

The reported value for N#Cc1cnn2cc(C3CC3)cc(-c3ccc(N4CCN(Cc5c(F)cccc5F)CC4)nc3)c12 in terms of pIC50 is 8.44

The reported value for COC1(C(=O)NCc2ccc(-n3cc(C)cn3)nc2)CN(c2nc(C)cc(Nc3cc(C)[nH]n3)n2)C1 in terms of pIC50 is 7.00 to 8.00

The reported value for O=C(c1ccc(F)cc1F)c1c[nH]c2nccc(-c3cc(F)cc(F)c3)c12 in terms of pIC50 is ≥ 5.00

The reported value for Cn1cc(-c2cc(-c3cnc(N4C[C@@H]5C[C@](C)(NC(=O)c6ncccc6Cl)C[C@@H]5C4)cn3)c3c(C#N)cnn3c2)cn1 in terms of pIC50 is ≥ 8.00

The reported value for CS(=O)(=O)Nc1cccc(-c2cnc3[nH]cc(C(=O)c4ccc5nsnc5c4)c3c2)c1 in terms of pIC50 is ≥ 5.00

The reported value for CC1(C)Oc2ccc(Nc3nc(Nc4ccc(N5CCOCC5)cc4)ncc3F)nc2NC1=O in terms of pIC50 is 8.22

----------
pIC50 for Proto-oncogene tyrosine-protein kinase receptor Ret (Homo sapiens) - collated from the literature.
pIC50: −log10 of the molar value.

Record for O=C(Nc1ccc(-c2ccc(=O)[nH]c2)cc1)Nc1ccc(CN2CCNCC2)c(C(F)(F)F)c1 under target or system Proto-oncogene tyrosine-protein kinase receptor Ret (Homo sapiens): pIC50 reported as > 7.00

Record for Cc1cc(Nc2cc(C)[nH]n2)nc([C@H]2C[C@@](C)(C(=O)N[C@@H](C)c3ccc(-n4cc(F)cn4)nc3)C2)n1 under target or system Proto-oncogene tyrosine-protein kinase receptor Ret (Homo sapiens): pIC50 reported as 8.00 to 9.00

Record for Cc1ccc(F)cc1C(=O)c1c[nH]c2ncc(-c3ccsc3)cc12 under target or system Proto-oncogene tyrosine-protein kinase receptor Ret (Homo sapiens): pIC50 reported as ≥ 5.00

Record for CCOc1cc(-c2ncc(NC(=O)Nc3ccc(C(C)C#N)c(C(F)(F)F)c3)c(C)n2)c[nH]c1=O (stereo not shown) under target or system Proto-oncogene tyrosine-protein kinase receptor Ret (Homo sapiens): pIC50 reported as > 7.00

Record for O=C(c1c(F)ccc(NCc2ccccc2)c1F)c1c[nH]c2ncc(-c3cccnc3)cc12 under target or system Proto-oncogene tyrosine-protein kinase receptor Ret (Homo sapiens): pIC50 reported as ≥ 5.00

Record for COC1(C(=O)N[C@@H](C)c2ccc(-n3cccn3)nc2)CN(c2nc(Nc3cc(C)[nH]n3)cc(C)c2F)C1 under target or system Proto-oncogene tyrosine-protein kinase receptor Ret (Homo sapiens): pIC50 reported as > 8.00

Record for Nc1cccc(-c2cnc3[nH]cc(C(=O)c4cccc(O)c4)c3c2)c1 under target or system Proto-oncogene tyrosine-protein kinase receptor Ret (Homo sapiens): pIC50 reported as ≥ 5.00

----------
pIC50: −log10 of the molar value.
pIC50 for Proto-oncogene tyrosine-protein kinase receptor Ret (Homo sapiens, UniProt P07949) - collated from the literature.

Record for N#Cc1cnn2cc(C3=CCOCC3)cc(-c3cnc(N4CC5CC(C4)N5Cc4ccc5[nH]ccc5c4)cn3)c12 under target or system Proto-oncogene tyrosine-protein kinase receptor Ret (Homo sapiens, UniProt P07949): pIC50 reported as 8.74

Record for O=C(c1ccccc1)c1c[nH]c2ncc(Br)c([N+](=O)[O-])c12 under target or system Proto-oncogene tyrosine-protein kinase receptor Ret (Homo sapiens, UniProt P07949): pIC50 reported as ≥ 5.00

Record for CS(=O)(=O)Nc1ccc(F)c(C(=O)c2c[nH]c3ncc(-c4cccc(S(C)(=O)=O)c4)cc23)c1 under target or system Proto-oncogene tyrosine-protein kinase receptor Ret (Homo sapiens, UniProt P07949): pIC50 reported as ≥ 5.00

Record for CCOc1cc(-c2nc(C)c(NC(=O)Nc3ccc(CN(C)C)c(C(F)(F)F)c3)c(C)n2)c[nH]c1=O under target or system Proto-oncogene tyrosine-protein kinase receptor Ret (Homo sapiens, UniProt P07949): pIC50 reported as > 7.00

----------
pIC50: −log10 of the molar value.
pIC50 for Proto-oncogene tyrosine-protein kinase receptor Ret (Homo sapiens) - collated from the literature.

Record for O=C(Nc1ccc(Oc2ncnc3[nH]ncc23)cc1)Nc1ccc(Cl)c(C(F)(F)F)c1 under target or system Proto-oncogene tyrosine-protein kinase receptor Ret (Homo sapiens): pIC50 reported as > 5.00

Record for Nc1cccc(-c2cnc3[nH]cc(C(=O)c4ccc5nsnc5c4)c3c2)c1 under target or system Proto-oncogene tyrosine-protein kinase receptor Ret (Homo sapiens): pIC50 reported as ≥ 5.00

Record for CS(=O)(=O)Nc1ccc(Cl)c(C(=O)c2c[nH]c3ncc(-c4cccnc4)cc23)c1F under target or system Proto-oncogene tyrosine-protein kinase receptor Ret (Homo sapiens): pIC50 reported as ≥ 5.00

Record for CCOc1cc(-c2ccc(NC(=O)Nc3cnc(OC(C)C)c(C(F)(F)F)c3)c(F)c2)c[nH]c1=O under target or system Proto-oncogene tyrosine-protein kinase receptor Ret (Homo sapiens): pIC50 reported as > 7.00

Record for COCc1cccc2[nH]c(-c3n[nH]c4ncc(-c5cncc(CNC(C)(C)C)c5)cc34)nc12 under target or system Proto-oncogene tyrosine-protein kinase receptor Ret (Homo sapiens): pIC50 reported as < 6.00

Record for COC1(C(=O)N[C@@H](C)c2ccc(-n3cc(F)cn3)nc2)CC=C(c2nc(Nc3cc(C)[nH]n3)cnc2C#N)CC1 (stereo partly shown) under target or system Proto-oncogene tyrosine-protein kinase receptor Ret (Homo sapiens): pIC50 reported as 7.79

Record for CCOc1cc(-c2ncc(NC(=O)Nc3cc(-n4cnc(C)c4)cc(C(F)(F)F)c3)c(C)n2)c[nH]c1=O under target or system Proto-oncogene tyrosine-protein kinase receptor Ret (Homo sapiens): pIC50 reported as > 7.00
